system: Beta-lactamase (Pseudomonas aeruginosa) (UniProt Q932Y6)
experiment.notes: VIM-2 metallo-beta-lactamase inhibition constant, late-stage follow-up, mechanism study, biochemical, probe results (AID 2128)
experimental.setup: purified enzyme, nitrocefin hydrolysis absorbance/fluorescence, enzyme assay, VIM-2 inhibition constant, kinetics
pKi: −log10 of the molar value.
readout.type: pKi

{"columns": ["molecule", "readout.type", "readout.number"],
 "data": [
  ["O=c1[nH]c2c(s1)C(c1cccnc1)C1C3CCC(C3)C1S2 (stereo unspecified)", "pKi", 6.83]
]}
